# Tested on: HS 578T breast
# TEST NAME: NCI tumour cell line growth inhibition, 48 h; in the data active = GI50 below about 0.43 µM; inactive = the rest
Your reply should match one of these outcome classes. active, inactive

[[record]]
compound = "COc1cc2c(c(OC)c1)C1c3ccccc3NC(=O)N1CC2 (configuration not stated)"
class_name = "inactive"


Lookup: Assay result, entry `O=c1cc(-c2ccccc2)[nH]c2ccccc12` — outcome?
Found: inactive

Lookup: Assay result, entry COc1cc(C2CC(c3ccc4c(c3)OCO4)=NN2C=O)cc(OC)c1OC (configuration not stated) — outcome?
Found: inactive

Lookup: Assay result, entry `COc1ccc(-c2nc3sc4c(c3c(=O)[nH]2)CCCCCC4)cc1` — outcome?
Found: inactive

Lookup: Assay result, entry `COc1ccc2sc3c(NCCCN(C)C)nc4ccccc4c3c(=O)c2c1` — outcome?
Found: inactive

Lookup: Assay result, entry `COc1cccc(-n2ncc3c(N/N=C/c4ccc(C(=O)NCCN(C)C)cc4)ncnc32)c1` — outcome?
Found: inactive

Lookup: Assay result, entry `N=C(N)c1ccc(-c2ccc(-c3cc(Cl)cc(Cl)c3)o2)nc1` — outcome?
Found: inactive

Lookup: Assay result, entry CC1SC(c2ccccc2)N(CCc2cccs2)C1=O (configuration not stated) — outcome?
Found: inactive

Lookup: Assay result, entry `COc1ccc(-c2n/c(=C\c3c(O)[nH]c4ccc(OC)cc34)cc3c2=Nc2ccccc2-3)cc1` — outcome?
Found: inactive

Lookup: Assay result, entry `NCCOCCOCCNc1nc(Cc2ccccc2)nc(NCCCN2CCCC2=O)n1` — outcome?
Found: inactive
